# maps each entry to its activity change, negative = cytotoxicity
assay: qHTS assay to identify small molecule agonists of H2AX - cell viability counter screen (AID 1224847); conditions: CHO-K1 viability, CellTiter-Glo luminescence, 3 h; series mostly up to 154 µM;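 also: wild-type CHO-K1 cells; top concentration of the series differs between compounds; % is scaled to controls: 0 for no effect and ±100 for the full control effect; nearly all actives have a fitted effect of over 30% in size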
Results filed as inconclusive are left out. The source made the active and inactive calls. Calls follow the shape of the full dose curve.

Example entries begin here.
[[record]]
compound = "O=C(O)O"
result_value = "-9.67% [at 14 µM] (inactive)"

[[record]]
compound = "CC(C)(C)CC(C)(C)c1ccc(Nc2ccc(C(C)(C)CC(C)(C)C)cc2)cc1"
result_value = "0.45% [at 14 µM] (inactive)"

[[record]]
compound = "C[C@@H](O)[C@H](N)C(=O)O"
result_value = "-4.33% [at 31.6 µM] (inactive)"


Param item = NC[C@H]1O[C@H](O[C@H]2[C@H](O[C@@H]3O[C@H](CO)[C@@H](O)[C@H]3O)C(O)[C@H](N)C[C@@H]2N)[C@H](N)[C@@H](O)[C@@H]1O (some centres undefined) ; retrieve measured activity change, negative = cytotoxicity.
-3.49% [at 14 µM] (inactive)
